run.description: MAD study plasma pharmacokinetics
Type: in vivo, human
test.conditions: human, plasma, oral, 200 mg, C24 GM (CV%), MAD panel 3, 200 mg once daily, day 1
property.name: concentration at 24 h (ng/mL)
Give bare numbers, in ng/mL.

Q: Item CNc1nc(Nc2ccc(-n3cnc(C)n3)c(OC)c2)nc2c1CC[C@H]2c1ccc(F)cc1 has what recorded concentration at 24 h?
Result: 220

* * *

run.description: SAD study CSF pharmacokinetics
Assay type: in vivo, human
test.conditions: human, oral, 900 mg
property.name: Kp

Q: Given CNc1nc(Nc2ccc(-n3cnc(C)n3)c(OC)c2)nc2c1CC[C@H]2c1ccc(F)cc1 , state its recorded Kp.
Result: < 0.01
